Molecular target: Integrin subunit alpha 2b/beta-3 (Rattus norvegicus, UniProt D3ZAC0+Q8R2H2)
Sequence (D3ZAC0 whole entry): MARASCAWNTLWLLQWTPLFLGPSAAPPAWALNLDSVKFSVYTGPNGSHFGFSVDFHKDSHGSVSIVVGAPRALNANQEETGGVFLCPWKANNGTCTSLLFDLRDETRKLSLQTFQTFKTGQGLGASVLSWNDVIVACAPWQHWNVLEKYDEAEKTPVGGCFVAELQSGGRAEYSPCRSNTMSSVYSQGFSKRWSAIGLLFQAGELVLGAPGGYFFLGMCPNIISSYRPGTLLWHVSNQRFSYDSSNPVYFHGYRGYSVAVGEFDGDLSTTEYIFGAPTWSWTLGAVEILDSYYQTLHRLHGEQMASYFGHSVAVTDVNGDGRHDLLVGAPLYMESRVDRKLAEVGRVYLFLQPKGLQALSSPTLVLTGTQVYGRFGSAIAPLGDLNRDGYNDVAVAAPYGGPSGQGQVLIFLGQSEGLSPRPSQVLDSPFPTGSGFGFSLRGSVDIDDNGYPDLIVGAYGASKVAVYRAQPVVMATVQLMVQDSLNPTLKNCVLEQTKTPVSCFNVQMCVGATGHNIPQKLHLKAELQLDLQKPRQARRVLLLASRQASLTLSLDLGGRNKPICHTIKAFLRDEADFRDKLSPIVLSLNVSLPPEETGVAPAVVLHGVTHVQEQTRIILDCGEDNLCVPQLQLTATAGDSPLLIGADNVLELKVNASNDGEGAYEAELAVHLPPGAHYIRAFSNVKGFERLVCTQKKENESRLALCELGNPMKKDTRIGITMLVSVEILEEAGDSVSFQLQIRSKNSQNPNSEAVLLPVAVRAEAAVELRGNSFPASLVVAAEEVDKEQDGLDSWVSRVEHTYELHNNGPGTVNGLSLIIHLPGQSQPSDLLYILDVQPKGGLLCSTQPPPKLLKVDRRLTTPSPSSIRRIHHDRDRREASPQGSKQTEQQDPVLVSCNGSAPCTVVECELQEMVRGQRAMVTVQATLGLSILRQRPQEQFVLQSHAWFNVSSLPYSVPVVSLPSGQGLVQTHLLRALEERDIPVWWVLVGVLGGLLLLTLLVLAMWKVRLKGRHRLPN
Sequence (Q8R2H2 whole entry): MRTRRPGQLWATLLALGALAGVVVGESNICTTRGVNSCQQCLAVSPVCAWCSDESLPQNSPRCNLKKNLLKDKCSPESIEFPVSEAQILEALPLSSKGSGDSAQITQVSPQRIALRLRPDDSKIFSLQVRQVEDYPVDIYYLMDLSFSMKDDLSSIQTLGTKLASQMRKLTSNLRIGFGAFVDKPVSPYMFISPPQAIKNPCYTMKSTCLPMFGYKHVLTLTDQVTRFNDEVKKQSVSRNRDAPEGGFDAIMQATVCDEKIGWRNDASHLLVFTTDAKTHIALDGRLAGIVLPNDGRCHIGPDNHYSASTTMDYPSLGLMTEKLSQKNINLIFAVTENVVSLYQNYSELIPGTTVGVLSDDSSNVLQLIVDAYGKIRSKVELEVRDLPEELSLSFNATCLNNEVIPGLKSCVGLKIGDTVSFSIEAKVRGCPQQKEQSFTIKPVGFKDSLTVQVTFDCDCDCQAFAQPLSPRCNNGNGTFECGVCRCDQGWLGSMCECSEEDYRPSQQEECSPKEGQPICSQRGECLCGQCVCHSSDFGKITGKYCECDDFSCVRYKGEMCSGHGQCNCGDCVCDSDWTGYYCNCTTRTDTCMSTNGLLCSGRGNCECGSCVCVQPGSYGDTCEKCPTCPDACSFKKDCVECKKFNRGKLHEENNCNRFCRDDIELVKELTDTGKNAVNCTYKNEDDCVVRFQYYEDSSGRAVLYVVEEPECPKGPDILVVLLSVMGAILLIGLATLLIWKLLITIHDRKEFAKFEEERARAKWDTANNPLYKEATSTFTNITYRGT
Test: Binding affinity to GP2b/3a in rat blood assessed as conformational change by measuring soluble GP2b/3a levels after 12 hrs by UV-spectrophotometric analysis
recorded.metric: EC50 (nM)

P. C[C@H]1N[C@H](C(=O)O)Cc2c1[nH]c1ccccc21
Q. C[C@@H]1N[C@H](C(=O)O)Cc2c1[nH]c1ccccc21
[in] Please state the entry with greater EC50 among P and Q . Indicate your choice by writing its label.
[out] Q
(Q: 1660 nM, P: 1160 nM)
